Measured values drawn from ChEMBL document CHEMBL1136713 for this set.

// Cholinesterase (Homo sapiens) pIC50 records
Bear in mind: pIC50 is minus log10 of a mol/L concentration; give just that figure.

Recorded results for 5 molecules are shown here.
> print(dat)
                                   molecule  measured.metric  data.value
1  CC[N+](C)(CCCCCC(=O)N(C)CCCCCCCCN(C)C(=O)CCCCC[N+](C)(CC)Cc1ccccc1C)Cc1ccccc1C (centres undefined)            pIC50        5.19
2  CCN(CCCCCC(=O)N(C)CCCCCCCCN(C)C(=O)CCCCCN(CC)Cc1ccccc1C(F)(F)F)Cc1ccccc1C(F)(F)F            pIC50        3.78
3  CC[N+](C)(CCCCCC(=O)N(C)CCCCCCCCN(C)C(=O)CCCCC[N+](C)(CC)Cc1ccccc1[N+](=O)[O-])Cc1ccccc1[N+](=O)[O-] (centres undefined)            pIC50        5.62
4  CC[N+](C)(CCCCCC(=O)N(C)CCCCCCCCN(C)C(=O)CCCCC[N+](C)(CC)Cc1ccccc1C(F)(F)F)Cc1ccccc1C(F)(F)F (centres undefined)            pIC50        5.12
5  CC[N+](C)(CCCCCC(=O)N(C)CCCCCCCCN(C)C(=O)CCCCC[N+](C)(CC)Cc1ccccc1Cl)Cc1ccccc1Cl (centres undefined)            pIC50        5.59

Query :: What value of pIC50 on Cholinesterase (Homo sapiens) does COc1ccccc1CN(CCCCCC(=O)N(C)CCCCCCCCN(C)C(=O)CCCCCN(Cc1ccccc1OC)C(C)C)C(C)C have?
Result :: 6.06

Query :: What value of pIC50 on Cholinesterase (Homo sapiens) does CC[N+](C)(CCCCCC(=O)N(C)CCCCCCCCN(C)C(=O)CCCCC[N+](C)(CC)Cc1ccccc1)Cc1ccccc1 (centres undefined) have?
Result :: 5.60

Query :: What value of pIC50 on Cholinesterase (Homo sapiens) does CC[N+](C)(CCCCCCOCCCCCCCCOCCCCCC[N+](C)(CC)Cc1ccccc1OC)Cc1ccccc1OC (centres undefined) have?
Result :: 6.12

Query :: What value of pIC50 on Cholinesterase (Homo sapiens) does COc1ccc(CN(C)CCCCCC(=O)N(C)CCCCCCCCN(C)C(=O)CCCCCN(C)Cc2ccc(OC)cc2)cc1 have?
Result :: 5.26

---

# Target or system: Acetylcholinesterase (Homo sapiens)
# Sequence (P22303 whole entry): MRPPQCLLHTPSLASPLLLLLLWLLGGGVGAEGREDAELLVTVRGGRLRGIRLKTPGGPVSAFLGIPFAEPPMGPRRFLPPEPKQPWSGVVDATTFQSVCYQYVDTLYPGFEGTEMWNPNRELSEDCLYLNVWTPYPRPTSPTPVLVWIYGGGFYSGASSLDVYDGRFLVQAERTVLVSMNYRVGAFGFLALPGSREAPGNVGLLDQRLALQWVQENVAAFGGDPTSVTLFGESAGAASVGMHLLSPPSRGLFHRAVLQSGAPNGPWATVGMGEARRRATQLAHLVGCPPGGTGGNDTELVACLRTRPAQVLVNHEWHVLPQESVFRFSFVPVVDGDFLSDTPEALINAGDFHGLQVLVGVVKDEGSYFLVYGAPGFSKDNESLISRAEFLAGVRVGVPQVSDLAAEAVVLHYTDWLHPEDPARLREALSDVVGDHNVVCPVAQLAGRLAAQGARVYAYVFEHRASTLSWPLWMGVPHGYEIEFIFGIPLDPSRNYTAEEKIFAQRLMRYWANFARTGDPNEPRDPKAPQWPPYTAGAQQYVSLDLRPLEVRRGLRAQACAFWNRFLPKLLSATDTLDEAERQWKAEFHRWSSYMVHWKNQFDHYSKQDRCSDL
In plain terms, low IC50, meaning strictly below 0.02 µM, gives criterion met, and everything else gives criterion not met.

Query :: Please determine if CCN(CCCCCC(=O)N(CCCCCCCCN(C(=O)CCCCCN(CC)Cc1ccccc1OC)C(C)C)C(C)C)Cc1ccccc1OC is below 0.02 µM in terms of IC50.
Result :: criterion met

Query :: Please determine if CC[N+](C)(CCCCCC(=O)N(CCCCCCCCN(C(=O)CCCCC[N+](C)(CC)Cc1ccccc1OC)C(C)C)C(C)C)Cc1ccccc1OC (configuration not stated) is below 0.02 µM in terms of IC50.
Result :: criterion met

Query :: Please determine if CC[N+](C)(CCCCCC(=O)N(C)CCCCCCCCN(C)C(=O)CCCCC[N+](C)(CC)Cc1ccccc1)Cc1ccccc1 (configuration not stated) is below 0.02 µM in terms of IC50.
Result :: criterion not met

Query :: Please determine if CCCOc1ccccc1C[N+](C)(CC)CCCCCC(=O)N(C)CCCCCCCCN(C)C(=O)CCCCC[N+](C)(CC)Cc1ccccc1OCCC (configuration not stated) is below 0.02 µM in terms of IC50.
Result :: criterion met

Query :: Please determine if COc1ccc(CN(C)CCCCCC(=O)N(C)CCCCCCCCN(C)C(=O)CCCCCN(C)Cc2ccc(OC)cc2)cc1 is below 0.02 µM in terms of IC50.
Result :: criterion not met

Query :: Please determine if CC[N+](C)(CCCCCC(=O)N(C)CCCCCCCCN(C)C(=O)CCCCC[N+](C)(CC)Cc1ccccc1OC)Cc1ccccc1OC (configuration not stated) is below 0.02 µM in terms of IC50.
Result :: criterion met
